Listed here are variants together with their documented protein stability index.
B1: ZNF207 (parent)
chain: CHICHKKLYTGPGLAIHCMQVHKE

Variants of: B1
Experiment: protein stability index of a GFP-peptide fusion (GPS, HEK-293T) (PSI 1-6); higher = more stable;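 note: lentivirally expressed fusions sorted by FACS into six bins by GFP to DsRed ratio, PSI derived from sequencing read proportions per bin multiplied by bin number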
Conditions: c terminus: a fixed tail appended

Worked examples, 4 variants total:
| MUTATION_NOTATION | protein stability index |
| --- | --- |
| P12H | 5.06 |
| I16Y | 3.02 |
| Q20F | 3.4 |
| T10C | 2.92 |

For V21C the variant record lists protein stability index as 4.09

Entry source: the supplement of paper PMC10567573
